For each of the compounds below, state its log10 IC50.
Biological target: recombinant Human Phosphodiesterase B2 (PDE4B2) (Homo sapiens)
Test: Human Phosphodiesterase B2 Alpha Screen Assay
Settings: recombinant human PDE4B2, cAMP substrate, 60 min at room temperature
Please keep in mind that the values are log10 of IC50 expressed in nM.

INSERT INTO assay_data (compound, value_observed) VALUES
  ('CCc1nn(C2CCCC2)c2c1C(=O)NCC(c1ccc(F)cc1)=N2', 0.02),
  ('CCc1nn(C2CCS(=O)(=O)C2)c2c1C(=O)NCC(c1ccccc1)=N2 (stereo not drawn)', 0.76),
  ('CCc1nn(C2CCCC2)c2c1C(=O)NCC(c1ccc(O)c(C(=O)OC)c1)=N2', -0.23);

For each of the items listed, what is its log10 IC50?
1. CCc1nn(-c2ccc(F)cc2)c2c1C(=O)NCC(c1ccccc1)=N2
2. CCc1nn(C2CCCC2)c2c1C(=O)NCC(CCC(=O)NCCN(C)C)=N2
3. CCc1nn(C2CCCC2)c2c1C(=O)NCC(c1ccccc1)=N2
4. CCc1nn(C2CCCC2)c2c1C(=O)NCC(c1ccc(S(C)(=O)=O)cc1)=N2
5. CCc1nn(C2CCCC2)c2c1C(=O)NCC(c1ccc(O)c(C(=O)O)c1)=N2
6. CCc1nn(-c2ccc(S(C)(=O)=O)cc2)c2c1C(=O)NCC(c1ccccc1)=N2
7. CCc1nn(C2CCCC2)c2c1C(=O)NCC(c1ccc(OC(F)(F)F)cc1)=N2

Result:
[0.79, 3.65, -0.48, 0.59, -0.28, 1.63, 0.62]

I'm hoping you can list log10 IC50 for every compound here, please.
1. Cc1nn(C2CCCC2)c2c1C(=O)NCC(c1ccccc1)=N2
2. CSc1nn(-c2ccccc2)c2c1C(=O)NCC(c1ccccc1)=N2

Result:
1: 0.98; 2: 2.63

Give log10 IC50 for each listed item.
1. CCc1nn(C2CCCC2)c2c1C(=O)NCC(c1ccc(C#N)cc1)=N2
2. CCc1nn(C2CCCC2)c2c1C(=O)NCC(CCC(=O)O)=N2
3. CCc1nn(-c2cccc([N+](=O)[O-])c2)c2c1C(=O)NCC(c1ccccc1)=N2
4. CCc1nn(C2CCS(=O)(=O)CC2)c2c1C(=O)NCC(c1ccccc1)=N2
5. CCc1nn(C2CCCC2)c2c1C(=O)NCC(c1cc(OC)ccc1OC)=N2

Result:
1. 0.08
2. 1.81
3. 0.68
4. 1.61
5. -0.30

# lookup: `CCc1nn(C2CCCC2)c2c1C(=O)NCC(c1ccc(Br)cc1)=N2` on recombinant Human Phosphodiesterase B2 (PDE4B2) (Homo sapiens), log10 IC50 = -0.08

---

Target: recombinant Human Phosphodiesterase B2 (PDE4B2) (Homo sapiens, UniProt Q07343)
Sequence (Q07343 1-564 isoform Q07343-2): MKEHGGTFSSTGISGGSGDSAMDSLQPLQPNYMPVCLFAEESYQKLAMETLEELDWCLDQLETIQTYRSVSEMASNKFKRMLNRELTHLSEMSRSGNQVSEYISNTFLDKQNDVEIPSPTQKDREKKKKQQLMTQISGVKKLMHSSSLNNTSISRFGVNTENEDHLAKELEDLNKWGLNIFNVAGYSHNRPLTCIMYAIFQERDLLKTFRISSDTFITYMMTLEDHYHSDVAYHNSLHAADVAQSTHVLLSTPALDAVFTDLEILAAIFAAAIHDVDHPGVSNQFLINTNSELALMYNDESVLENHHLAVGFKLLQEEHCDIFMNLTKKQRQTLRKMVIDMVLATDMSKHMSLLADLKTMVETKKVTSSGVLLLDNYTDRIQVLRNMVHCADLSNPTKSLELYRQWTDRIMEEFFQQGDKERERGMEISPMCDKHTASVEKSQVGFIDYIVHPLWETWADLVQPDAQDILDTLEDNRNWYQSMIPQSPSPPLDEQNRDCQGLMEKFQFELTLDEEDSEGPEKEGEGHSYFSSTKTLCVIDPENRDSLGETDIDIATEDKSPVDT
Test: Human Phosphodiesterase B2 Alpha Screen Assay
Conditions: recombinant human PDE4B2, cAMP substrate, 60 min at room temperature
Class (by IC50) -- low-valued = under 0.7 nM, mid-valued = from 0.7 nM up to 10 nM, high-valued = 10 nM and over

INSERT INTO results (compound, qualitative_label) VALUES
  ('CCc1nn(C2CCCC2)c2c1C(=O)NCC(c1ccco1)=N2 [Example 17]', 'mid-valued'),
  ('CCc1nn(C2CCCC2)c2c1C(=O)N(C)CC(c1ccccc1)=N2 [Example 26]', 'high-valued'),
  ('CCc1nn(C2CCCC2)c2c1C(=O)NCC(c1ccc(OC)cc1)=N2 [Example 2]', 'mid-valued'),
  ('CCc1nn(C2CCCC2)c2c1C(=O)NCC(c1cccc(OC)c1)=N2 [Example 19]', 'low-valued'),
  ('CCc1nn(C2CCSCC2)c2c1C(=O)NCC(c1ccccc1)=N2 [Example 33]', 'mid-valued'),
  ('CCc1nn(C2CCCC2)c2c1C(=O)NCC(c1ccc3c(c1)OCCCO3)=N2 [Example 16]', 'low-valued'),
  ('CCc1nn(C2CCCC2)c2c1C(=O)NCC(c1ccc(F)c(F)c1)=N2 [Example 13]', 'mid-valued'),
  ('CCc1nn(C2CCCC2)c2c1C(=O)NC(c1ccccc1)C(C)=N2 (stereo not drawn) [Example 25]', 'high-valued'),
  ('CCc1nn(C2CCCC2)c2c1C(=O)NCC(C(C)(C)C)=N2 [Example 18]', 'low-valued'),
  ('CCc1nn(-c2ccccc2)c2c1C(=O)NCC(c1ccccc1)=N2 [Example 6]', 'high-valued');

Q: Could you place CCc1nn(C2CCCC2)c2c1C(=O)NCC(c1ccc(Cl)cc1)=N2 [Example 12] in its proper category? Many thanks.
Result: low-valued

Q: Bin? CCc1nn(C2CC[S+]([O-])CC2)c2c1C(=O)NCC(c1ccccc1)=N2 (stereo not drawn) [Example 34]
Result: high-valued

Q: State the band of CCc1nn(C2CCCC2)c2c1C(=O)NCC(c1ccc(OCc3ccccc3)cc1)=N2 [Example 15]
Result: mid-valued
